Here the recorded koff is given for each entry.
# System Under Test: recombinant human PD-L1 (Sino Biological Inc.) (human, UniProt Q9NZQ7 19-239)
# Sequence (Q9NZQ7 19-239 limits assumed): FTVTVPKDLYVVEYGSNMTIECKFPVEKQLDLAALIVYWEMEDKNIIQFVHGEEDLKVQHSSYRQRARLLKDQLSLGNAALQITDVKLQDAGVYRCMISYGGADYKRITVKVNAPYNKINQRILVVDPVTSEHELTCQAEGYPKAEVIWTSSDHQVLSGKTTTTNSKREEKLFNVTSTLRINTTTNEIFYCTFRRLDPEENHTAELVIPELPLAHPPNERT
# Measurement Protocol: SPR, Biacore X100
# Protocol: This instrument utilizes optical surface plasmon resonance technology to detect the association and dissociation between the molecules coated on the biochip and the molecules to be tested. Association constants and dissociation constants were analyzed and calculated by Biacore X100 evaluation software. […]
Your answer is read as s⁻¹, so omit the unit and give the number.

These recorded examples may help you get a feel for the data.
Binder | Unit Descriptor | koff
humanized anti-human PD-L1 monoclonal antibody VLS15-VHS12 P1 (antibody, human IgG1, kappa, V domains shown) VH: EVQLVQSGAEVKKPGSSVKVSCKASGFNIEDTYIHWVRQAPGQGLEWMGRIDPAQGNTKYDPKFQGRVTITADTSTNTAYMELSSLRSEDTAVYYCGRGLGAWFAYWGQGTLVTVSS VL: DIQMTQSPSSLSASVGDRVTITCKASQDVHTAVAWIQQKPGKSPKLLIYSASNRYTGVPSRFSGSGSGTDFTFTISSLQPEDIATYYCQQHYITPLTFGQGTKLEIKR | s⁻¹ | 0.000833
humanized anti-human PD-L1 monoclonal antibody VLS15-VHS12 P2 (antibody, human IgG1, kappa, V domains shown) VH: EVQLVQSGAEVKKPGSSVKVSCKASGFNIEDTYIHWVRQAPGQGLEWMGRIDPASGNTKYDPKFQGRVTITADTSTNTAYMELSSLRSEDTAVYYCGRGLGAWFAYWGQGTLVTVSS VL: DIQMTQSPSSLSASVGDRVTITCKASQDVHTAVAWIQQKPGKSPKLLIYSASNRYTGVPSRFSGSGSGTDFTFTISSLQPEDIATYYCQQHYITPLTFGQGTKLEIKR | s⁻¹ | 0.00072
humanized anti-human PD-L1 monoclonal antibody VLS10-VHS7 (antibody, human IgG1, kappa, V domains shown) VH: QVQLVQSGAEVKKPGSSVKVSCTASGFNIEDTYIHWVRQAPGQGLEWMGRIDPANGNTKYDPKFQGRVTITADTSTNTAYMELSSLRSEDTAVYYCGRGLGAWFAYWGQGTLVTVSS VL: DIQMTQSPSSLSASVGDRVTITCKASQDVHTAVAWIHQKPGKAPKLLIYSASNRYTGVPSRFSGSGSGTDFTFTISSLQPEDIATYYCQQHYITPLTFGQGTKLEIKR | s⁻¹ | 0.000584
humanized anti-human PD-L1 monoclonal antibody VLS10-VHS7 P2 (antibody, human IgG1, kappa, V domains shown) VH: QVQLVQSGAEVKKPGSSVKVSCTASGFNIEDTYIHWVRQAPGQGLEWMGRIDPASGNTKYDPKFQGRVTITADTSTNTAYMELSSLRSEDTAVYYCGRGLGAWFAYWGQGTLVTVSS VL: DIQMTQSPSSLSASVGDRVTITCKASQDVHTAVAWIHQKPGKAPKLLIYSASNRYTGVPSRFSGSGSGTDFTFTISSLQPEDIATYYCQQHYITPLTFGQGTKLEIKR | s⁻¹ | 0.000994

Now for another entry.
QUERY: // lookup koff for chimeric anti-human PD-L1 monoclonal antibody (antibody, human IgG1, kappa, V domains shown, expressed in ExpiCHO cells; also called Chimeric mAb; Chimeric antibody) VH: EVQLQQSGAELVKPGASVKLSCTASGFNIEDTYIHWVMQRPEQGLEWIGRIDPANGNTKYDPKFQGKATITADTSSNTAYLQLSSLTSEDTAVYYCGRGLGAWFAYWGQGTLVTVSA VL: DIVMTQSHKVMSTSVGDRVTITCKASQDVHTAVAWIHQKPGQSPKLLIYSASNRYTGVPDRFTGSGSGTDFTFTISSVQAEDLAVYYCQQHYITPLTFGAGTTLELKR
RESULT: 0.000594

meta.source: patent US20240301068A1
